All figures here come from paper PMC8716398.

target-under-test: 3CLpro (Severe acute respiratory syndrome coronavirus 2)
experiment-notes: Isothermal titration calorimetry
Design: species or system SARS-CoV-2
reported-conditions: KD of the secondary binding, ITC, two sets of independent sites model, 25 °C
pKd: −log10 of the molar value.
measurement-kind: pKd

>  <structure-string>
O=C(O)c1ccccc1-c1c2cc(Br)c(=O)cc-2oc2[c]([Hg+])c(O)c(Br)cc12

>  <measurement-kind>
pKd

>  <quantitative-readout>
4.17

$$$$
